TGT: HLA-B*40:02
PROCEDURE TEXT: IEDB peptide-MHC binding, purified MHC/competitive/fluorescence; bounds were set here for any values at or beyond the usual limits of such assays
EXPERIMENTAL CONDITIONS: source organism: Mus musculus
pIC50: −log10 of the molar value.
ENDPOINT NAME: pIC50

get_value(item= VALFSSCPVAY , readout=pIC50) returns ≤ 4.70

----------
Measured pKd values are reported for all entries that follow.
TGT: HLA-B*27:03
PROCEDURE TEXT: IEDB peptide-MHC binding, purified MHC/competitive/fluorescence; filed as Kd, often an IC50 or EC50 that approximates it; bounds were set here for any values at or beyond the usual limits of such assays
EXPERIMENTAL CONDITIONS: source organism: Zaire ebolavirus
pKd: −log10 of the molar value.

AENCYNLEI : ≤ 4.70
GIVSSMHYK : ≤ 4.70

Kindly consider the entry below.
pKd for HLA-B*27:03 with input DRLASTVIY equals ≤ 4.70

----------
TGT: HLA-A*33:01
PROCEDURE TEXT: IEDB peptide-MHC binding, purified MHC/competitive/radioactivity; filed as Kd, often an IC50 or EC50 that approximates it; bounds were set here for any values at or beyond the usual limits of such assays
EXPERIMENTAL CONDITIONS: source organism: Dengue virus 2 Jamaica/1409/1983
ENDPOINT NAME: Kd (nM)
Please give a number only; it is taken to be in nM.

Known value: HLA-A*33:01 Kd of the sequence EIWTKEGER equals 47.9

----------
TGT: HLA-A*26:01
PROCEDURE TEXT: IEDB peptide-MHC binding, purified MHC/direct/fluorescence; filed as Kd, often an IC50 or EC50 that approximates it; bounds were set here for any values at or beyond the usual limits of such assays
EXPERIMENTAL CONDITIONS: source organism: Pseudomonas aeruginosa UCBPP-PA14
ENDPOINT NAME: Kd

Reported Kd for YTFCRLNVK was ≥ 20 µM

----------
TGT: HLA-A*03:01
PROCEDURE TEXT: IEDB peptide-MHC binding, purified MHC/direct/fluorescence; filed as Kd, often an IC50 or EC50 that approximates it; bounds were set here for any values at or beyond the usual limits of such assays
EXPERIMENTAL CONDITIONS: source organism: Yersinia pestis CA88-4125
pKd: −log10 of the molar value.
ENDPOINT NAME: pKd

# pKd (sequence: KLLARFLFE ) is ≤ 4.70

----------
Reported Kd values for the following sequences.
TGT: HLA-A*02:06
PROCEDURE TEXT: IEDB peptide-MHC binding, purified MHC/competitive/radioactivity; filed as Kd, often an IC50 or EC50 that approximates it; bounds were set here for any values at or beyond the usual limits of such assays
EXPERIMENTAL CONDITIONS: source organism: Vaccinia virus WR

Recorded Kd, per entry:
FTELENKKV : 6.84 µM
SAGFTATICL : 2.41 µM
NTITTFIPI : 7.77 µM

Moving on to the next sequence.
Briefly, Kd measured for KVLSIMAFIL : 0.0191 µM

----------
TGT: HLA-B*15:01
PROCEDURE TEXT: IEDB peptide-MHC binding, purified MHC/direct/fluorescence; filed as Kd, often an IC50 or EC50 that approximates it; bounds were set here for any values at or beyond the usual limits of such assays
EXPERIMENTAL CONDITIONS: source organism: Rhizobium wenxiniae
ENDPOINT NAME: Kd

Please fill in: Kd reported for FHLRSRFAF = ≥ 20 µM

----------
TGT: HLA-B*39:01
PROCEDURE TEXT: IEDB peptide-MHC binding, purified MHC/competitive/fluorescence; filed as Kd, often an IC50 or EC50 that approximates it; bounds were set here for any values at or beyond the usual limits of such assays
EXPERIMENTAL CONDITIONS: source organism: Yersinia pestis Nepal516
ENDPOINT NAME: pKd
Scale note: pKd = -log10(concentration in M).

Lookup result for SQMGLSCAL ; measured pKd: 8.46

----------
Here, each record is paired with measured pKd data.
TGT: HLA-B*07:02
PROCEDURE TEXT: IEDB peptide-MHC binding, purified MHC/direct/fluorescence; filed as Kd, often an IC50 or EC50 that approximates it; bounds were set here for any values at or beyond the usual limits of such assays
EXPERIMENTAL CONDITIONS: source organism: SARS-CoV1
Lab note: report pKd as minus log10 of the concentration in molar units, number only.

TPSGTWLTY : 5.15

response.value for KSYEHQTPF (field: pKd) = 5.24

----------
TGT: HLA-B*40:01
PROCEDURE TEXT: IEDB peptide-MHC binding, purified MHC/direct/fluorescence; filed as Kd, often an IC50 or EC50 that approximates it; bounds were set here for any values at or beyond the usual limits of such assays
EXPERIMENTAL CONDITIONS: source organism: Zaire ebolavirus
ENDPOINT NAME: pKd
// pKd is dimensionless: -log10 of concentration (M)

Case AENCYNLEI , HLA-B*40:01, pKd recorded as 7.09

----------
TGT: HLA-B*07:02
PROCEDURE TEXT: IEDB peptide-MHC binding, purified MHC/direct/fluorescence; filed as Kd, often an IC50 or EC50 that approximates it; bounds were set here for any values at or beyond the usual limits of such assays
EXPERIMENTAL CONDITIONS: source organism: Rhizobium wenxiniae
ENDPOINT NAME: Kd

Measured Kd of FHLRSRFAF : ≥ 20 µM

----------
TGT: HLA-A*31:01
PROCEDURE TEXT: IEDB peptide-MHC binding, purified MHC/direct/fluorescence; filed as Kd, often an IC50 or EC50 that approximates it; bounds were set here for any values at or beyond the usual limits of such assays
EXPERIMENTAL CONDITIONS: source organism: Shewanella violacea
pKd: −log10 of the molar value.
ENDPOINT NAME: pKd

The value of pKd measured for the sequence ETKGKRRLL turned out to be ≤ 4.70

----------
TGT: HLA-B*15:01
PROCEDURE TEXT: IEDB peptide-MHC binding, purified MHC/direct/fluorescence; filed as Kd, often an IC50 or EC50 that approximates it; bounds were set here for any values at or beyond the usual limits of such assays
EXPERIMENTAL CONDITIONS: source organism: Escherichia coli O157:H7
Below, each of the sequences is paired with its reported Kd value.

GITGGHIPK : ≥ 20000 nM

Next, consider the following sequence.
Reported HLA-B*15:01 Kd for item YLFQWNDNV was 1710 nM

----------
TGT: HLA-B*35:01
PROCEDURE TEXT: IEDB peptide-MHC binding, purified MHC/competitive/fluorescence; filed as Kd, often an IC50 or EC50 that approximates it; bounds were set here for any values at or beyond the usual limits of such assays
EXPERIMENTAL CONDITIONS: source organism: Human immunodeficiency virus 1
ENDPOINT NAME: pKd
Entry type: numeric. Quantity: pKd, the -log10 of concentration in molar units.

Value of measured pKd for the entry KSLFNTVATLY : 5.62

----------
TGT: HLA-B*07:02
PROCEDURE TEXT: IEDB peptide-MHC binding, purified MHC/competitive/radioactivity; bounds were set here for any values at or beyond the usual limits of such assays
EXPERIMENTAL CONDITIONS: source organism: Human immunodeficiency virus 1
ENDPOINT NAME: pIC50
# pIC50: negative log10 of molar concentration; output just the value

The value of pIC50 measured for the sequence FPVRPQVPL turned out to be 7.80

----------
TGT: HLA-B*44:02
PROCEDURE TEXT: IEDB peptide-MHC binding, purified MHC/direct/fluorescence; filed as Kd, often an IC50 or EC50 that approximates it; bounds were set here for any values at or beyond the usual limits of such assays
EXPERIMENTAL CONDITIONS: source organism: Camelpox virus M-96
ENDPOINT NAME: Kd

// sequence YERGNIIIF , assay HLA-B*44:02, Kd value: ≥ 20 µM

----------
TGT: HLA-A*02:17
PROCEDURE TEXT: IEDB peptide-MHC binding, purified MHC/competitive/radioactivity; filed as Kd, often an IC50 or EC50 that approximates it; bounds were set here for any values at or beyond the usual limits of such assays
EXPERIMENTAL CONDITIONS: source organism: Dengue virus 3 China/80-2/1980
Each entry below lists one item and its recorded Kd value.
Give the value, in units of nM, as a plain number.

KMDLGVPLL : 698

Kd on HLA-A*02:17 for QLWTALVSL is 79.7

Reading of Kd for YAMCLNTFVL with HLA-A*02:17: 110

----------
TGT: HLA-B*07:02
PROCEDURE TEXT: IEDB peptide-MHC binding, purified MHC/competitive/radioactivity; filed as Kd, often an IC50 or EC50 that approximates it; bounds were set here for any values at or beyond the usual limits of such assays
EXPERIMENTAL CONDITIONS: source organism: Dengue virus 3 Martinique/1243/1999
ENDPOINT NAME: Kd

According to the records, this sequence LAHYIGTSL displays Kd of 20 nM
